Origin of values: ChEMBL document CHEMBL4354827

# Assay Procedure: Elimination half life in human at 7.5 to 100 mg
# Type: ADME
# Test Context: read-out: beta t1/2
Experimental Endpoint: half-life

Item CCC(=O)c1sc(-c2ccc(Cl)cc2)c(C)c1-c1ccc(S(N)(=O)=O)cc1 has what recorded half-life?
15.5 to 77 h

###

# Assay Procedure: Drug concentration in Wistar rat plasma at 3 mg/kg, po after 2 hrs by LC-MS/MS analysis
# Assay type: ADME, organism-based
Experimental Endpoint: concentration at 2 h

Item CCC(=O)c1cc(-c2ccc(Cl)cc2)n(-c2ccc(S(N)(=O)=O)cc2)c1C has what recorded concentration at 2 h?
700 to 1050 nM
